- Test system: MCF-7
- ASSAY_PROTOCOL: Cancer cell growth IC50 (crystal violet)
- Assay type: cell-based
- MEASUREMENT_SETUP: Homo sapiens, MCF7, Example 13, 72 h
READOUT_NAME: pIC50
Note: pIC50 values are expressed as the negative base-10 logarithm of concentration in M.

pIC50 recorded for this compound, CCC(C)(C)C(=O)O[C@H]1C[C@@H](C)C=C2C=C[C@H](C)[C@H](CC[C@@H]3C[C@@H](O)CC(=O)O3)[C@H]21 [SIM, Simvastatin] , is 5.57

###

- System: C4-2
- ASSAY_PROTOCOL: Cancer cell growth IC50 (crystal violet)
- Assay type: cell-based
- MEASUREMENT_SETUP: C4-2; Example 13; C42; 72 h
READOUT_NAME: pIC50
Note: pIC50 values are expressed as the negative base-10 logarithm of concentration in M.

pIC50 recorded for this compound, CCC(C)(C)C(=O)O[C@H]1C[C@@H](C)C=C2C=C[C@H](C)[C@H](CC[C@@H]3C[C@@H](O)CC(=O)O3)[C@H]21 [SIM, Simvastatin] , is 5.11

###

- Tested on: Raji
- ASSAY_PROTOCOL: Lymphoma cell growth IC50 (MTT)
- Type: cell-based, human
- MEASUREMENT_SETUP: Homo sapiens, Example 13, 72 h, read-out: IC50
- Protocol: Exemplary Embodiments are generally performed as follows, unless otherwise noted. Simvastatin is purchased from Ark Pharm, Inc. (Arlington Heights, IL). Cisplatin (CIS) is purchased from MedKoo Biosciences, Inc. (Chapel Hill, NC). […] All intermediates are characterized by 1H NMR and mass analysis and the purity of compounds are analyzed by HPLC. […] IC50 is the half maximal inhibitory concentration and determined is determined by crystal violet assay unless otherwise noted. […]
READOUT_NAME: pIC50
Note: pIC50 values are expressed as the negative base-10 logarithm of concentration in M.

pIC50 recorded for this molecule, "CCC(C)(C)C(=O)O[C@H]1C[C@@H](C)C=C2C=C[C@H](C)[C@H](CC[C@@H]3C[C@@H](O)CC(=O)O3)[C@H]21" , is 4.49

###

- Tested on: PC3M
- ASSAY_PROTOCOL: Cancer cell growth IC50 (crystal violet)
- Assay type: cell-based
- MEASUREMENT_SETUP: Homo sapiens, PC-3M, Example 13, 72 h
READOUT_NAME: IC50 (nM)
Write down the numeric answer in nM and omit the unit.

IC50 recorded for this compound, CCC(C)(C)C(=O)O[C@H]1C[C@@H](C)C=C2C=C[C@H](C)[C@H](CC[C@@H]3C[C@@H](O)CC(=O)O3)[C@H]21 [SIM, Simvastatin] , is 248

###

- Test system: Ramos
- ASSAY_PROTOCOL: Lymphoma cell growth IC50 (MTT)
- Assay type: cell-based, human
- MEASUREMENT_SETUP: Homo sapiens, Example 13, 72 h, read-out: IC50
- Protocol: Exemplary Embodiments are generally performed as follows, unless otherwise noted. Simvastatin is purchased from Ark Pharm, Inc. (Arlington Heights, IL). Cisplatin (CIS) is purchased from MedKoo Biosciences, Inc. (Chapel Hill, NC). […] All intermediates are characterized by 1H NMR and mass analysis and the purity of compounds are analyzed by HPLC. […] IC50 is the half maximal inhibitory concentration and determined is determined by crystal violet assay unless otherwise noted. […]
READOUT_NAME: IC50
Please state the value followed by its unit.

IC50 recorded for this molecule, "CCC(C)(C)C(=O)O[C@H]1C[C@@H](C)C=C2C=C[C@H](C)[C@H](CC[C@@H]3C[C@@H](O)CC(=O)O3)[C@H]21" , is 13 µM

###

- Tested on: Caki-1
- ASSAY_PROTOCOL: Renal cancer cell growth IC50 (crystal violet)
- Format: cell-based, human
- MEASUREMENT_SETUP: Example 15; Caki-1; read-out: IC50
READOUT_NAME: IC50

IC50 recorded for this compound, N.N.[Cl][Pt][Cl] [CIS, cis-diamminedichloridoplatinum (II)] , is > 64 µM

###

- Tested on: CA-46
- ASSAY_PROTOCOL: Lymphoma cell growth IC50 (MTT)
- Type: cell-based, human
- MEASUREMENT_SETUP: Example 15; CA46; read-out: IC50
READOUT_NAME: IC50

IC50 recorded for this molecule, N.N.[Cl][Pt][Cl] [CIS, cis-diamminedichloridoplatinum (II)] , is > 64 µM

###

- Test system: PC3M
- ASSAY_PROTOCOL: Cancer cell growth IC50 (crystal violet)
- Format: cell-based
- MEASUREMENT_SETUP: Example 15
READOUT_NAME: IC50

Entry N.N.[Cl][Pt][Cl] [CIS, cis-diamminedichloridoplatinum (II)] under PC3M had IC50 of > 64 µM

###

- Tested on: CAOV-3
- ASSAY_PROTOCOL: Cancer cell growth IC50 (crystal violet)
- Assay type: cell-based
- MEASUREMENT_SETUP: Example 15
READOUT_NAME: IC50 (µM)
Write down the numeric answer in µM and omit the unit.

IC50 recorded for this molecule, N.N.[Cl][Pt][Cl] [CIS, cis-diamminedichloridoplatinum (II)] , is 13.4

###

- Test system: ACHN
- ASSAY_PROTOCOL: Renal cancer cell growth IC50 (crystal violet)
- Type: cell-based, human
- MEASUREMENT_SETUP: 72 hours, read-out: Half maximal inhibitory concentration (IC50)
READOUT_NAME: IC50

IC50 recorded for this molecule, N.N.[Cl][Pt][Cl] [CIS, cis-diamminedichloridoplatinum (II)] , is > 64 µM

###

- Test system: 22Rv1
- ASSAY_PROTOCOL: Cancer cell growth IC50 (crystal violet)
- Format: cell-based, human
- MEASUREMENT_SETUP: Example 15
pIC50: −log10 of the molar value.
READOUT_NAME: pIC50

pIC50 recorded for this molecule, N.N.[Cl][Pt][Cl] [CIS, cis-diamminedichloridoplatinum (II)] , is < 4.19

###

- Test system: Ramos, a B-cell lymphoma, cultured as 3-D spheroids
- ASSAY_PROTOCOL: Cell viability IC50 in 3-D spheroids
- Assay type: cell-based, human
- MEASUREMENT_SETUP: Homo sapiens; Ramos 3-D spheroids; 72 h; single agent
- Experimental: Exemplary Embodiments are generally performed as follows, unless otherwise noted. Simvastatin is purchased from Ark Pharm, Inc. (Arlington Heights, IL). Cisplatin (CIS) is purchased from MedKoo Biosciences, Inc. (Chapel Hill, NC). […] All intermediates are characterized by 1H NMR and mass analysis and the purity of compounds are analyzed by HPLC. […] IC50 is the half maximal inhibitory concentration and determined is determined by crystal violet assay unless otherwise noted. […]
READOUT_NAME: IC50 (µM)
Write down the numeric answer in µM and omit the unit.

SMILES	VALUE
CCC(C)(C)C(=O)O[C@H]1C[C@@H](C)C=C2C=C[C@H](C)[C@H](CC[C@@H]3C[C@@H](OC(=O)CCCCCN4/C(=C/C=C5\CCCC(/C=C/C6=[N+](CCCCS(=O)(=O)[O-])c7ccccc7C6(C)C)=C5Cl)C(C)(C)c5ccccc54)CC(=O)O3)[C@H]21	2.74

Switching to the query record.
IC50 recorded for this compound, "CCC(C)(C)C(=O)O[C@H]1C[C@@H](C)C=C2C=C[C@H](C)[C@H](CC[C@@H]3C[C@@H](O)CC(=O)O3)[C@H]21" , is 13

###

- Tested on: o-786
- ASSAY_PROTOCOL: Renal cancer cell growth IC50 (crystal violet)
- Type: cell-based, human
- MEASUREMENT_SETUP: o-786; 72 hours; read-out: Half maximal inhibitory concentration (IC50)
pIC50: −log10 of the molar value.
READOUT_NAME: pIC50

pIC50 recorded for this molecule, N.N.[Cl][Pt][Cl] [CIS, cis-diamminedichloridoplatinum (II)] , is < 4.19

###

- Test system: HepG2
- ASSAY_PROTOCOL: Cancer cell growth IC50 (crystal violet)
- Format: cell-based
- MEASUREMENT_SETUP: Example 15
READOUT_NAME: IC50

IC50 recorded for this compound, N.N.[Cl][Pt][Cl] [CIS, cis-diamminedichloridoplatinum (II)] , is > 64 µM

###

- Test system: Daudi
- ASSAY_PROTOCOL: Lymphoma cell growth IC50 (MTT)
- Type: cell-based, human
- MEASUREMENT_SETUP: Example 15, read-out: IC50
pIC50: −log10 of the molar value.
READOUT_NAME: pIC50

pIC50 recorded for this compound, N.N.[Cl][Pt][Cl] [CIS, cis-diamminedichloridoplatinum (II)] , is < 4.19

###

- Tested on: Ramos
- ASSAY_PROTOCOL: Lymphoma cell growth IC50 (MTT)
- Type: cell-based, human
- MEASUREMENT_SETUP: 72 hours, read-out: Half maximal inhibitory concentration (IC50)
- Experimental: Exemplary Embodiments are generally performed as follows, unless otherwise noted. Simvastatin is purchased from Ark Pharm, Inc. (Arlington Heights, IL). Cisplatin (CIS) is purchased from MedKoo Biosciences, Inc. (Chapel Hill, NC). […] All intermediates are characterized by 1H NMR and mass analysis and the purity of compounds are analyzed by HPLC. […] IC50 is the half maximal inhibitory concentration and determined is determined by crystal violet assay unless otherwise noted. […]
READOUT_NAME: IC50

IC50 recorded for this molecule, N.N.[Cl][Pt][Cl] [CIS, cis-diamminedichloridoplatinum (II)] , is > 64 µM

Reference source for all entries: patent US12121510B2
